B1: PIP5K1C peptide 640-655 (Phosphatidylinositol 4-phosphate 5-kinase type-1 gamma), 16-mer library wild type / TLN1 PTB (TLN1 Phosphotyrosine-binding (PTB) domain, residues 309-401) (parent)
chain 1: FPTDERSWVYSPLHYS
chain 2: GVSFFLVKEKMKGKNKLVPRLLGITKECVMRVDEKTKEVIQEWNLTNIKRWAASPKSFTLDFGDYQDGYYSVQTTEGEQIAQLIAGYIDIILK

- Variants of: B1
- procedure summary: proteomic peptide phage display deep mutational scan (ProP-PD DMS): M13 P8 16-mer library selected against immobilised GST-tagged bait for four days (rounds), NGS of the eluted pools per day and pseudo-replica
- condition details: with TLN1 PTB (TLN1 Phosphotyrosine-binding (PTB) domain, residues 309-401); bait immobilised on MaxiSorp plates (10 µg), library pre-cleared on GST, 2 h binding at 4 °C, five washes; one round per day, days 1-4; value from days 2 and 3; keep out of graded; scale: average fractional NGS count over selection days 2 and 3
Labelling: screen value reported below 0.0002 becomes met; at or above becomes not met.

residue string	label value
chain 1 FPTDERSWFYSPLHYS	met
chain 1 FPTDERSWHYSPLHYS	not met
chain 1 FPTDEFSWVYSPLHYS	met
chain 1 FPTDERSWVYSFLHYS	met
chain 1 FPTDERSWVYSPVHYS	met
chain 1 FPTDERSGVYSPLHYS	met
chain 1 FPTLERSWVYSPLHYS	not met
chain 1 FPTDERSWVWSPLHYS	met
chain 1 FPTDERSWVYSPQHYS	met
chain 1 FPLDERSWVYSPLHYS	not met
chain 1 FRTDERSWVYSPLHYS	met
chain 1 FYTDERSWVYSPLHYS	met
chain 1 FPTDERSWVYSPLEYS	not met
chain 1 FPTDERSWNYSPLHYS	not met
chain 1 FPTDNRSWVYSPLHYS	not met
chain 1 FPTDERSWVTSPLHYS	not met
chain 1 FPTDYRSWVYSPLHYS	met
chain 1 FPTEERSWVYSPLHYS	met
chain 1 FPTDESSWVYSPLHYS	not met
chain 1 FPTDERSWYYSPLHYS	not met
chain 1 FPTDERGWVYSPLHYS	met
chain 1 FPTDGRSWVYSPLHYS	not met
chain 1 FPTDEKSWVYSPLHYS	met
chain 1 FPTDEREWVYSPLHYS	met
chain 1 FLTDERSWVYSPLHYS	not met
chain 1 FPTDERSWVYSPLHYQ	met
chain 1 FPTDTRSWVYSPLHYS	not met
chain 1 FPTDERSWVYSPLAYS	not met
chain 1 FPTDERPWVYSPLHYS	met
chain 1 FPTDEPSWVYSPLHYS	not met
chain 1 FPTDERSWVYSKLHYS	met
chain 1 FPTDERHWVYSPLHYS	met
chain 1 FPTDERSWVYSPIHYS	not met
chain 1 FPSDERSWVYSPLHYS	met
chain 1 FPTDERSWVYSPLHTS	not met
chain 1 FPTDERSWVYLPLHYS	met
chain 1 FPTFERSWVYSPLHYS	met
chain 1 FPTDEISWVYSPLHYS	not met
chain 1 FPTPERSWVYSPLHYS	met
chain 1 FPTDEASWVYSPLHYS	not met
chain 1 FPTDERSWVYSPLIYS	met
chain 1 FPTGERSWVYSPLHYS	not met
chain 1 FPTDERSWVYSTLHYS	met
chain 1 FPTDERSWVYSPLHYW	met
chain 1 FPTDERSWVYSPLHKS	not met
